Biological target: human recombinant HDAC6 (Homo sapiens (Human))
Assay: HDAC6 enzyme activity inhibition assay (HDAC Fluorimetric Drug Discovery Kit)
Conditions: human recombinant HDAC6, same protocol as HDAC1 test
MEASURED_QUANTITY: IC50 (nM)

Solved entries:
O=S(=O)(N1CCN(C2CCC2)CC1)N(Cc1ccc(-c2nnc(C(F)F)o2)cn1)c1ccc(F)c(Cl)c1
27
O=S(=O)(N1CCOCC1)N(Cc1ccc(-c2nnc(C(F)F)o2)cc1)c1ccc(F)cc1
52
O=S(=O)(N1CCN(C2COC2)CC1)N(Cc1ccc(-c2nnc(C(F)F)o2)cn1)c1cccc(Cl)c1
21
Cl.O=S(=O)(N1CCNCC1)N(Cc1ccc(-c2nnc(C(F)F)o2)cc1F)c1ccccc1 [Compound 11301, Hydrochloride]
28
O=S(=O)(N1CCOCC1)N(Cc1ccc(-c2nnc(C(F)(F)F)o2)cc1)c1ccc(F)cc1
136
O=S1(=O)CCN(S(=O)(=O)N(Cc2ccc(-c3nnc(C(F)F)o3)cn2)c2ccc(F)c(Cl)c2)CC1
23
CN1CCN(S(=O)(=O)N(Cc2ccc(-c3nnc(C(F)F)o3)cn2)c2ccccc2)CC1
15
CC(C)N1CCN(S(=O)(=O)N(Cc2ccc(-c3nnc(C(F)F)o3)cc2F)c2ccccc2)CC1
46
CC(=O)N1CCN(CCN(C)S(=O)(=O)N(Cc2ccc(-c3nnc(C(F)F)o3)cc2)c2ccccc2)CC1
705
CN1CCN(S(=O)(=O)N(Cc2ccc(-c3nnc(C(F)F)o3)cc2F)c2ccccc2)CC1
23

[I] O=S(=O)(N1CCC2(CC1)CN(C1CCC1)C2)N(Cc1ccc(-c2nnc(C(F)F)o2)cc1)c1ccccc1
[II] CC(=O)N1[C@H](C)CN(S(=O)(=O)N(Cc2ccc(-c3nnc(C(F)F)o3)cc2)c2ccccc2)C[C@@H]1C
[III] C[C@@H]1CN(S(=O)(=O)N(Cc2ccc(-c3nnc(C(F)F)o3)cc2)c2ccccc2)C[C@H](C)N1C
Please list these in order of increasing IC50. Thank you! Use the labels to give the ranking in the order requested.
II, III, I
(II: 33 nM, III: 69 nM, I: 122 nM)

---

Target: human recombinant HDAC6 (Homo sapiens (Human), UniProt Q9UBN7)
Sequence (Q9UBN7 whole entry): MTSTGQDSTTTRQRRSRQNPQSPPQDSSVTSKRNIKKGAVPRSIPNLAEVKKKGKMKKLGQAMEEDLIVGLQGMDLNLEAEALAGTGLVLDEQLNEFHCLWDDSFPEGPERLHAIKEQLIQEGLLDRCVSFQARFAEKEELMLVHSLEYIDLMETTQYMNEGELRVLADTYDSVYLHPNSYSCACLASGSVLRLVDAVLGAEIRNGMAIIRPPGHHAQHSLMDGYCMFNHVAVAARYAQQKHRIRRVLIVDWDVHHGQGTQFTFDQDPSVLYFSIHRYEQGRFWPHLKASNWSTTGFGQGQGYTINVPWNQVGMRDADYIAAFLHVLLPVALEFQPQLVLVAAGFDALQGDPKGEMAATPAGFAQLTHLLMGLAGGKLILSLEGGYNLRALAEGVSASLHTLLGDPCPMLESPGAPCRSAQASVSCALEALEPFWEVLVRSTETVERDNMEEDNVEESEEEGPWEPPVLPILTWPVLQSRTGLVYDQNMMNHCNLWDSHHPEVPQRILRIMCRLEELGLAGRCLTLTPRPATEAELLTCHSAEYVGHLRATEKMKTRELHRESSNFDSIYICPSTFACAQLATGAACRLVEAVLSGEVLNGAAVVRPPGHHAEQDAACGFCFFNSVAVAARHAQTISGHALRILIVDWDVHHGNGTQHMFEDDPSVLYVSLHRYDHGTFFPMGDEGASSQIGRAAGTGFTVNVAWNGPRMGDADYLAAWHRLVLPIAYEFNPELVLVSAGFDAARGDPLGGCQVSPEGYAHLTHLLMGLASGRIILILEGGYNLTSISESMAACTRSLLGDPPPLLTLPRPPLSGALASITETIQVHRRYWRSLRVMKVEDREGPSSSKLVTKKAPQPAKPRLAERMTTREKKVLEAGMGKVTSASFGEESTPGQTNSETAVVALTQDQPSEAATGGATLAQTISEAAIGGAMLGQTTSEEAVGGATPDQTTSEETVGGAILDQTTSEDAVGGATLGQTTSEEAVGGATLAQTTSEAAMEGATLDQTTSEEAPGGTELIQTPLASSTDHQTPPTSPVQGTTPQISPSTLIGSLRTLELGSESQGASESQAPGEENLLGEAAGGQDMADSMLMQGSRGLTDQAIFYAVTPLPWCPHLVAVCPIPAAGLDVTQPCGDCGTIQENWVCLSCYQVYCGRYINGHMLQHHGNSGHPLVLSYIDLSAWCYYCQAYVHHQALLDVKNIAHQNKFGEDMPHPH
Assay: HDAC6 enzyme activity inhibition assay (HDAC Fluorimetric Drug Discovery Kit)
Settings: human recombinant HDAC6, same protocol as HDAC1 test
pIC50: −log10 of the molar value.
MEASURED_QUANTITY: pIC50

Please review the following examples before continuing.
CCN1CCN(S(=O)(=O)N(Cc2ccc(-c3nnc(C(F)F)o3)cc2F)c2ccccc2)CC1
7.38
Cl.O=S(=O)(N1CCNCC1)N(Cc1ccc(-c2nnc(C(F)F)o2)cc1F)c1cccc(F)c1 [Compound 11313, Hydrochloride]
7.62
Cc1cccc(N(Cc2ccc(-c3nnc(C(F)F)o3)cn2)S(=O)(=O)N2CCN(C3COC3)[C@H](C)C2)c1
7.30
CC(=O)N1[C@H](C)CN(S(=O)(=O)N(Cc2ccc(-c3nnc(C(F)F)o3)cc2)c2cccnc2)C[C@@H]1C
7.20
O=S1(=O)CCN(S(=O)(=O)N(Cc2ccc(-c3nnc(C(F)F)o3)cn2)c2ccccc2)CC1
7.70
Cc1cccc(N(Cc2ccc(-c3nnc(C(F)F)o3)cn2)S(=O)(=O)N2CCN(C)[C@@H](C)C2)c1
7.28
CN1CCN(S(=O)(=O)N(Cc2ccc(-c3nnc(C(F)(F)F)o3)cc2F)c2cccc(F)c2)CC1
7.14
C[C@H]1CN(S(=O)(=O)N(Cc2ccc(-c3nnc(C(F)F)o3)cn2)c2cccc(Cl)c2)CCN1C
7.54

[P] CCCN1[C@H](C)CN(S(=O)(=O)N(Cc2ccc(-c3nnc(C(F)F)o3)cc2)c2ccccc2)C[C@@H]1C
[Q] C[C@H]1CN(S(=O)(=O)N(Cc2ccc(-c3nnc(C(F)F)o3)cn2)c2cccc(Cl)c2)CCN1C1COC1
Could you check which of P and Q has a smaller value for pIC50? Refer to your chosen item by its label in the answer.
P
(P: 6.46, Q: 7.77)
